# Assayed system: Sigma non-opioid intracellular receptor 1 (Homo sapiens, UniProt Q99720)
# Sequence (Q99720 whole entry): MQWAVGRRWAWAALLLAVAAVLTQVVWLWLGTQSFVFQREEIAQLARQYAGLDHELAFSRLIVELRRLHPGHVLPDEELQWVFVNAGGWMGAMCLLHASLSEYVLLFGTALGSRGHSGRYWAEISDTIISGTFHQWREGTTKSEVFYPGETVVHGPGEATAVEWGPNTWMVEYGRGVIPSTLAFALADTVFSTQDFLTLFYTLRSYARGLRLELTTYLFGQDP
# Experiment: Binding affinity towards sigma receptor using [3H](+)-SKF-10047 as radioligand
Ki values by entry

Compound structure string | Ki, nM
C(=C\c1ccccc1)/COCC1CCN(Cc2ccccc2)CC1 | 7
Fc1ccc(CCN2CCC(CCOCC#Cc3ccccc3)CC2)cc1 | 18
C(#Cc1ccccc1)COCCC1CCN(CCc2ccccc2)CC1 | 7
C/C=C/CN1CCC(COC/C=C/c2ccccc2)CC1 | 8
C(COCC1CCN(Cc2ccccc2)CC1)=C(c1ccccc1)c1ccccc1 | 22
C(#Cc1ccccc1)COCCC1CCN(CC2CC2)CC1 | 1
Fc1ccc(/C=C/COCC2CCN(Cc3ccccc3)CC2)cc1 | 12
C(#Cc1ccccc1)COCC1CCN(Cc2ccccc2)CC1 | 4
C(/C=C/c1ccccc1)=C\OCC1CCN(Cc2ccccc2)CC1 | 212
C(=C\c1ccccc1)/COCC1CCN(CCc2ccccc2)CC1 | 5
FC(F)(F)c1ccc(/C=C/COCC2CCN(Cc3ccccc3)CC2)cc1 | 28
C(#Cc1ccccc1)COC1CCN(CCc2ccccc2)CC1 | 4
C(=C\c1ccccc1)/COCC1CCN(CC2CC2)CC1 | 5
C(=C/c1ccccc1)/COCC1CCN(Cc2ccccc2)CC1 | 90
Fc1ccc(C#CCOCCC2CCN(CCc3ccccc3)CC2)cc1 | 2
C(=C\c1ccccc1)/COCC1CCN(CCCc2ccccc2)CC1 | 18
c1ccc(CCCOCC2CCN(Cc3ccccc3)CC2)cc1 | 27
C(=C\c1ccccc1)/COCC1CCN(Cc2cccc3ccccc23)CC1 | 8
